Reference for the values: ChEMBL document CHEMBL1221342

# Tested on: NCI-H460
# test.description: Cytotoxicity against human NCI-H460 cells after 72 hrs by SRB assay
# Format: functional, cell-based
# condition.details: NCI-H460, 72 h
property.name: IC50

Which IC50 value belongs to COc1ccc(C2CC(c3cc(OC)c(OC)c(OC)c3)=NN2C(C)=O)cc1 (stereo unspecified) ?
> 20 µM

Fill in: IC50 of COc1cc(C2CC(c3ccc(Br)cc3)=NN2)cc(OC)c1OC (stereo unspecified) is ___
> 20 µM

Item under review: COc1ccc(C2=NN(C(C)=O)C(c3cc(OC)c(OC)c(OC)c3)C2)cc1 (stereo unspecified) . Reported IC50?
> 20 µM

I would be grateful if you could share the reported IC50 for COc1cc(C2CC(c3ccc(SC)cc3)=NN2)cc(OC)c1OC (stereo unspecified) .
> 20 µM

Can you share its IC50? I mean this compound: COc1cc(C2=NNC(c3cc(OC)c(OC)c(OC)c3)C2)ccc1O (stereo unspecified)
> 20 µM

Item under review: COc1cc(C2CC(c3ccc(Cl)cc3)=NN2C(C)=O)cc(OC)c1OC (stereo unspecified) . Reported IC50?
11.9 µM

Which IC50 reading was recorded for the compound COc1cccc(C2CC(c3cc(OC)c(OC)c(OC)c3)=NN2C(C)=O)c1 (stereo unspecified) ?
> 20 µM

Suppose we examine the compound COc1cc(C2CC(c3ccc(C)cc3)=NN2)cc(OC)c1OC (stereo unspecified) ; what IC50 value has been reported?
> 20 µM

What measured IC50 goes with COc1cc(C2=NNC(c3cccc(O)c3)C2)cc(OC)c1OC (stereo unspecified) ?
> 20 µM

Looking for the measured IC50 of COc1cc(C2CC(c3cccc(O)c3)=NN2C(C)=O)cc(OC)c1OC (stereo unspecified) , can you help?
2.3 µM

Can you share its IC50? I mean this compound: COc1cc(C2CC(c3cccc(Br)c3)=NN2C(=O)CO)cc(OC)c1OC (stereo unspecified)
1.1 µM

====

# Tested on: A498
# test.description: Growth inhibition of human A498 cells after 48 hrs by SRB assay
# Format: functional
# condition.details: A498, 48 h
Kindly apply the following: Y if GI50 is less than 400 nM, N in every other case.

Report whether reported GI50 is lower than 400 nM (strictly) for COc1cc(C2=NN(C(C)=O)C(c3cc(OC)c(OC)c(OC)c3)C2)ccc1O (centres undefined)
Y

Strictly below 400 nM in GI50? COc1cc(C2=NNC(c3ccc(N(C)C)cc3)C2)cc(OC)c1OC (centres undefined)
N

Regarding `COc1ccc(/C=C\c2cc(OC)c(OC)c(OC)c2)cc1O` , kindly confirm whether its GI50 is beneath 400 nM.
Y

Bench note: check whether CCN(CC)c1ccc(C2=NN(C(C)=O)C(c3cc(OC)c(OC)c(OC)c3)C2)cc1 (centres undefined) shows GI50 below 400 nM
Y

Just wondering, is GI50 of COc1ccc(C2CC(c3cc(OC)c(OC)c(OC)c3)=NN2)cc1 (centres undefined) below 400 nM?
N

GI50 strictly < 400 nM for this compound? COc1cc(C2CC(c3cccc(O)c3)=NN2C(C)=O)cc(OC)c1OC (centres undefined)
N

GI50 under 400 nM? Item: COc1cc(C2CC(c3ccc(N(C)C)cc3)=NN2C(C)=O)cc(OC)c1OC (centres undefined)
N
